Assay: Tolerance of cell cultures to acetazolamide
Format: cell-based, human
Settings: human, hela cells; confluent cultures, 3 days; read-out: concentration tolerated without any signs of toxicity and without any effect on cell morphology
metric.name: MNTC at 72 h

Prompt line: Fill in the blank: the reported MNTC at 72 h of CC(=O)Nc1nnc(S(N)(=O)=O)s1 [acetazolamide] is ____.
Response line: 10 to 1000 µM

---

Assay: Tolerance of cell cultures to acetazolamide
Type: cell-based, mouse
Settings: mouse, nih3t3 cells; confluent cultures, 3 days; read-out: concentration tolerated without any signs of toxicity and without any effect on cell morphology
metric.name: MNTC at 72 h

Prompt line: What value of measured MNTC at 72 h is listed for CC(=O)Nc1nnc(S(N)(=O)=O)s1 [acetazolamide] ?
Response line: 10 to 1000 µM
